Data origin, for the record: ChEMBL document CHEMBL1799926

Experiment: Binding affinity to chimpanzee P2Y14 receptor
Design: species or system Pan troglodytes
assay-metric: Ki (nM)
Unit nM implied. Number only.

Return value of Ki for input O=C(O)c1cc(-c2ccc(C3CCNCC3)cc2)c2ccc(-c3ccc(C(F)(F)F)cc3)cc2c1 , no commentary. 1.9

Specify Ki for O=C(O)c1cc(-c2ccc([C@@H](O)C(F)F)cc2)c2ccc(-c3ccc(C(F)(F)F)cc3)cc2c1 and stop. 4

###

Experiment: Half life in mouse at 75 mg/kg, po bid
Format: ADME, organism-based
Parameters: dose 75 mg/kg, route oral
Conditions: in vivo
assay-metric: half-life (h)
Return type: number; implicit unit h.

Answer with reported half-life of O=C(O)c1cc(-c2ccc([C@@H](O)C(F)F)cc2)c2ccc(-c3ccc(C(F)(F)F)cc3)cc2c1 3

###

Experiment: Clearance in mouse at 75 mg/kg, po bid
Assay type: ADME, organism-based
Design: dose 75 mg/kg, route oral
Settings: in vivo
assay-metric: CL/F (mL/min/kg)
Respond numerically; units are mL/min/kg and should not be typed.

Tell me measured CL/F for O=C(O)c1cc(-c2ccc([C@@H](O)C(F)F)cc2)c2ccc(-c3ccc(C(F)(F)F)cc3)cc2c1 please. 1.6

###

Test: AUC in mouse at 50 mg/kg, po after 24 hrs
Type: ADME, organism-based, Plasma
Parameters: time < 24 hr, dose 50 mg/kg, route oral
Settings: plasma
assay-metric: AUC at 24 h (µM·h)
Provide only the numeric value, understood in µM·h.

Answer with reported AUC at 24 h of O=C(O)c1cc(-c2ccc(C3CCNCC3)cc2)c2ccc(-c3ccc(C(F)(F)F)cc3)cc2c1 [PPTN] 23

###

Kindly supply the reported concentration at 24 h values for the records listed here.
Experiment: Plasma concentration in mouse at 50 mg/kg, po after 24 hrs
Assay type: ADME, organism-based
Parameters: dose 50 mg/kg, route oral
# value in nM; strip the unit string

Retrieve concentration at 24 h measured for CN(C)C(=O)COC(=O)c1cc(-c2ccc(C3CCNCC3)cc2)c2ccc(-c3ccc(C(F)(F)F)cc3)cc2c1 and print it. 2280

Using the record for O=C(O)c1cc(-c2ccc(C3CCNCC3)cc2)c2ccc(-c3ccc(C(F)(F)F)cc3)cc2c1 , state its measured concentration at 24 h. 680

###

Test: Oral bioavailability in mouse at 50 mg/kg
Format: ADME, organism-based
Conditions: in vivo
Can you tell me bioavailability for the items I'm about to list?

For O=C(O)c1cc(-c2ccc(C3CCNCC3)cc2)c2ccc(-c3ccc(C(F)(F)F)cc3)cc2c1 , write its bioavailability. 5%

Kindly indicate its recorded bioavailability. Item: CN(C)C(=O)COC(=O)c1cc(-c2ccc(C3CCNCC3)cc2)c2ccc(-c3ccc(C(F)(F)F)cc3)cc2c1 67%

###

Experiment: Oral bioavailability in mouse at 75 mg/kg bid
Type: ADME, organism-based
Conditions: in vivo
assay-metric: bioavailability (%)
Give a bare numeral; the unit % is implied.

Return reported bioavailability. Input compound: O=C(O)c1cc(-c2ccc([C@@H](O)C(F)F)cc2)c2ccc(-c3ccc(C(F)(F)F)cc3)cc2c1 67

###

Assay: Binding affinity to chimpanzee P2Y14 receptor in presence of 2% human serum albumin
Set-up: species or system Pan troglodytes
assay-metric: pKi
Recall that pKi is obtained by taking minus log10 of the concentration measured in molar.

Give the value of pKi reported for the following: O=C(O)c1cc(-c2ccc(C3CCNCC3)cc2)c2ccc(-c3ccc(C(F)(F)F)cc3)cc2c1 7.46

Find the measured pKi of O=C(O)c1cc(-c2ccc([C@@H](O)C(F)F)cc2)c2ccc(-c3ccc(C(F)(F)F)cc3)cc2c1 and report it. 5.89
